Please provide measured koff for the entries that follow.
Biological target: T1, integrin αvβ3, purified from human placenta (human, UniProt P06756 31-1048; P05106 27-788)
T1 construct: mature; Native heterodimer, immobilized on ELISA plates or on the BIAcore chip; biotinylated in capture lift and capture ELISA screens; also called αvβ3 receptor; vitronectin receptor
T1 sequence (P06756 31-1048, form in doubt, chain 1 of 2): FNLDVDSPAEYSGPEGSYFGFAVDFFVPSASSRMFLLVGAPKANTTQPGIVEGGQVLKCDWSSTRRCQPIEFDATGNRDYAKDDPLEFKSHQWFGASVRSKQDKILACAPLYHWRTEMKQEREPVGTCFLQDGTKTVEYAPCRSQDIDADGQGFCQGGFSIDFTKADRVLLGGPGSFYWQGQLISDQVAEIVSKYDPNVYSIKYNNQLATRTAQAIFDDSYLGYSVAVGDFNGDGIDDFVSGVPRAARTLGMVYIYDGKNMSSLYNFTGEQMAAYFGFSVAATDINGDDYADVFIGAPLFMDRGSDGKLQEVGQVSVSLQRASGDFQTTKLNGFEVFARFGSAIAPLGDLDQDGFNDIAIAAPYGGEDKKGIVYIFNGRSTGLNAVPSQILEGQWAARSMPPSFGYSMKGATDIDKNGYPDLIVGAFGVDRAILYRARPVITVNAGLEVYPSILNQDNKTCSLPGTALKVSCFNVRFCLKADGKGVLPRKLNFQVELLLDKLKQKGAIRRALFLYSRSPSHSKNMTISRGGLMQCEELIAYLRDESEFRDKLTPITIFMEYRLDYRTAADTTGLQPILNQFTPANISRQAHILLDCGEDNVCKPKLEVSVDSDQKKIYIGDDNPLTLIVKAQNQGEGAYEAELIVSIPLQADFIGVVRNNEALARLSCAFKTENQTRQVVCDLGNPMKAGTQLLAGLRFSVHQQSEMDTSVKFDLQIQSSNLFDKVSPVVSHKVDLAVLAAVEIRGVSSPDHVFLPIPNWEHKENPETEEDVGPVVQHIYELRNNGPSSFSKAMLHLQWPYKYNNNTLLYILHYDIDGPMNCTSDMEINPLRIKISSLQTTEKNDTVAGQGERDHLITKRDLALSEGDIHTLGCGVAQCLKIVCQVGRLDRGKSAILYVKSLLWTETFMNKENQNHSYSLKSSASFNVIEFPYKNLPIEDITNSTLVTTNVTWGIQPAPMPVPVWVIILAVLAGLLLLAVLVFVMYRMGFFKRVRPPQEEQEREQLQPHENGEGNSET
T1 sequence (P05106 27-788, form in doubt, chain 2 of 2): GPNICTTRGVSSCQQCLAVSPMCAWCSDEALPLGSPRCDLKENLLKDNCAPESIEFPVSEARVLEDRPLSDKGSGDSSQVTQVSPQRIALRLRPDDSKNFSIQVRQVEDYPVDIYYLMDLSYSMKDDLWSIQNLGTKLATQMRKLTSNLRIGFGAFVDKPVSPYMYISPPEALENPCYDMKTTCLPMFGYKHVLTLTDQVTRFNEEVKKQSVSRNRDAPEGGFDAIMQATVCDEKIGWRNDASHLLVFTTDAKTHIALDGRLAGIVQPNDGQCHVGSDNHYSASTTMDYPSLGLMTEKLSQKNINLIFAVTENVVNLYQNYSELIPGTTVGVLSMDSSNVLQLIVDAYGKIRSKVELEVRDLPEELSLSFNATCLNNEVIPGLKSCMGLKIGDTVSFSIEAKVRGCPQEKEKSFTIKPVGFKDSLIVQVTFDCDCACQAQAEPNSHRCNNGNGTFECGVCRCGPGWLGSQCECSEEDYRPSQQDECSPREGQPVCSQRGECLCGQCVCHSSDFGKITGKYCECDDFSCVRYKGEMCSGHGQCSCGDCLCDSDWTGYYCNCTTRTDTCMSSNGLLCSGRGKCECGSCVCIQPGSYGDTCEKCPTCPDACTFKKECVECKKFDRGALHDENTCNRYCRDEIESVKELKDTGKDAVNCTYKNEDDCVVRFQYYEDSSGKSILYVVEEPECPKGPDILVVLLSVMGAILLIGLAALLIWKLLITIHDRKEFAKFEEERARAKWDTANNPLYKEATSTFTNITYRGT
Experiment: SPR (BIAcore), purified Fab over immobilized αvβ3
Field: numeric (s⁻¹). Do not append units.

## Task Entry LM609 grafted antibody combinatorial clone V357D (Fab, V domains shown, Fab; V357D is a clone name, not a substitution) VH: QVQLVESGGGVVQPGRSLRLSCAASGFTFSSYDMSWVRQAPGKGLEWVAKVSSGGGSTYYLDTVQGRFTISRDNSKNTLYLQMNSLRAEDTAVYYCARHNYGSFADWGQGTTVTVSS VL: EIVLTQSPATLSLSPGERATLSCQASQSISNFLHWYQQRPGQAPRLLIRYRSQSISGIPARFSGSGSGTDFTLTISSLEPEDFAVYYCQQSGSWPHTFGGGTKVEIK has what koff?
## Result 0.00014

## Task Would you mind doing LM609 grafted antibody combinatorial clone C176 (Fab, V domains shown, Fab) VH: QVQLVESGGGVVQPGRSLRLSCAASGFTFSSYDMSWVRQAPGKGLEWVAKVSSGGGSTYYPDTVQGRFTISRDNSKNTLYLQMNSLRAEDTAVYYCARHNYGSFATWGQGTTVTVSS VL: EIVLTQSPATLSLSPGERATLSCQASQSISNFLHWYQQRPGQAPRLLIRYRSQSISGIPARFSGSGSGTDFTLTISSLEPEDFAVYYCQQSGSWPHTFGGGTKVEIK as well?
## Result 0.000192

## Task Would you mind doing LM609 grafted antibody combinatorial clone C29 (Fab, V domains shown, Fab) VH: QVQLVESGGGVVQPGRSLRLSCAASGFTFSSYDMSWVRQAPGKGLEWVAKVSSGGGSTYYPDTVQGRFTISRDNSKNTLYLQMNSLRAEDTAVYYCARHNHGSFYSWGQGTTVTVSS VL: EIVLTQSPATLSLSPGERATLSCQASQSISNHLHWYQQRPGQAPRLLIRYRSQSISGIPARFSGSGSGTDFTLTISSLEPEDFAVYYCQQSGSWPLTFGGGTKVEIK as well?
## Result 0.000343
